What follows is a record of IC50 for Factor D (Homo sapiens, UniProt P00746).

Example cases with answers are listed next.
Compound: N#C[C@@H]1C[C@@H](C(=O)Nc2cccc(Br)n2)N(C(=O)Cn2c3ccc(C(F)(F)F)cc3c3c(N)ncnc32)C1 [Compound 178d]
IC50: 100 to 1000 nM
//
Compound: Cc1cc(C(F)(F)F)cc2c3c(N)ncnc3n(CC(=O)N3[C@H](C(=O)Nc4cncc(Cl)n4)C[C@@]4(C)C[C@@H]34)c12 [Compound 327c]
IC50: < 100 nM

Data request: Record Nc1ncnc2c1c1cc(C(F)(F)F)ccc1n2CC(=O)N1[C@@H]2C[C@@H]2C[C@H]1C(=O)Nc1ccccn1 [Compound 272c] : what is its IC50 with Factor D (Homo sapiens, UniProt P00746)?
Data returned: 100 to 1000 nM

Data request: Try the compound Nc1ncnc2c1c1cc(-c3ccoc3)ccc1n2CC(=O)N1[C@@H]2C[C@@H]2C[C@H]1C(=O)Nc1cccc(Br)n1 [Compound 275c]
Data returned: < 100 nM

Data request: Try the compound CNc1ncnc2c1cnn2CC(=O)N1[C@@H]2C[C@@H]2C[C@H]1C(=O)Nc1cccc(Br)n1 [Compound 82a]
Data returned: > 1000 nM

Data request: Try the compound C[C@@]12C[C@@H](C(=O)Nc3cccc(Br)n3)N(C(=O)Cn3c4ncccc4c4c(N)ncnc43)[C@@H]1C2 [Compound 183a]
Data returned: < 100 nM

Data request: Try the compound Nc1ncnc2ccc(CC(=O)N3C[C@H](F)C[C@H]3C(=O)NCc3cccc(Cl)c3F)cc12 [Compound 294c]
Data returned: > 1000 nM

* * *

The entries below are paired with their reported IC50.
target: Factor D (Homo sapiens)
Sequence (P00746 26-253): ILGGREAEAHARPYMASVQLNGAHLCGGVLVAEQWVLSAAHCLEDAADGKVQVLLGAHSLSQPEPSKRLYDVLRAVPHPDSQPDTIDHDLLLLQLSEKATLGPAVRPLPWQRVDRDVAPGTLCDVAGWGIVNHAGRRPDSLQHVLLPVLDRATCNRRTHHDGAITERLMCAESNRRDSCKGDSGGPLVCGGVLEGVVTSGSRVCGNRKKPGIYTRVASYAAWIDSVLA

Example cases with answers are listed next.
Molecule: Cc1cc(C(F)(F)F)cc2c3c(N)ncnc3n(CC(=O)N3[C@H](C(=O)Nc4cccc(Br)n4)C[C@@]4(C)C[C@@H]34)c12 [Compound 184g]
Metric: IC50
Result: < 0.1 µM
//
Molecule: Nc1ncnc2c1c1ccc(O)cc1n2CC(=O)N1[C@@H]2C[C@@H]2C[C@H]1C(=O)Nc1cccc(Br)n1 [Compound 167a]
Metric: IC50
Result: < 0.1 µM
//
Molecule: Cc1cc(-c2ccccn2)cc2c3c(N)ncnc3n(CC(=O)N3[C@H](C(=O)Nc4cccc(Br)n4)C[C@@]4(C)C[C@@H]34)c12 [Compound 378c]
Metric: IC50
Result: < 0.1 µM
//
Molecule: COC(=O)c1ccc2c(c1)c1c(N)ncnc1n2CC(=O)N1[C@H](C(=O)Nc2cccc(Br)n2)C[C@@]2(C)C[C@@H]12 [Compound 40a]
Metric: IC50
Result: < 0.1 µM
//
Molecule: Nc1nc(N)c2ccn(CC(=O)N3[C@@H]4C[C@@H]4C[C@H]3C(=O)Nc3cccc(Br)n3)c2n1 [Compound 87f]
Metric: IC50
Result: > 1 µM

Data request: Record Cc1ccc2c(n1)c1c(N)ncnc1n2CC(=O)N1[C@H](C(=O)Nc2cccc(Br)n2)C[C@@]2(C)C[C@@H]12 [Compound 286a] : what is its IC50 with Factor D (Homo sapiens)?
Data returned: < 0.1 µM

* * *

What follows is a record of IC50 for UniProt P00746.

Example cases with answers are listed next.
Molecule: Cc1cc(C(F)(F)F)cc2c3c(N)ncnc3n(CC(=O)N3[C@H](C(=O)Nc4cncc(Br)n4)C[C@@]4(C)C[C@@H]34)c12 [Compound 296a]
Metric: IC50
Result: < 100 nM
--
Molecule: C[C@@]12C[C@@H](C(=O)Nc3cccc(Br)n3)N(C(=O)Cn3c4ccc(-c5ccncc5)nc4c4c(N)ncnc43)[C@@H]1C2 [Compound 373a]
Metric: IC50
Result: 100 to 1000 nM

Here is another molecule to look at.
Data request: Param item = Cc1ncc(NC(=O)[C@@H]2C[C@@]3(C)C[C@H]3N2C(=O)Cn2c3ncnc(N)c3c3cc(C(F)(F)F)cc(C)c32)nc1Br [Compound 364d] ; retrieve measured IC50.
Data returned: < 100 nM

* * *

target: UniProtKB P00746
Metric: IC50

Example cases with answers are listed next.
Compound: Cc1ccc(Br)nc1NC(=O)[C@@H]1C[C@@]2(C)C[C@H]2N1C(=O)Cn1cnc2c(N)ncnc21 [Compound 113a]
IC50: 0.1 to 1 µM
--
Compound: Nc1ncnc2c1c1nc(C(F)(F)F)ccc1n2CC(=O)N1[C@@H]2C[C@@H]2C[C@H]1C(=O)Nc1cccc(Br)n1 [Compound 234a]
IC50: < 0.1 µM
--
Compound: Cc1cccc2c1c1c(N)ncnc1n2CC(=O)N1[C@@H]2C[C@@H]2C[C@H]1C(=O)Nc1cccc(Br)n1 [Compound 56g]
IC50: 0.1 to 1 µM

Data request: Record C[C@@]12C[C@@H](C(=O)Nc3cccc(Br)n3)N(C(=O)Cn3ccc4c(N)ncnc43)[C@@H]1C2 [Compound 73a] : what is its IC50 with UniProtKB P00746?
Data returned: < 0.1 µM

Data request: Try the compound COc1cc2c3c(N)ncnc3n(CC(=O)N3[C@@H]4C[C@@H]4C[C@H]3C(=O)Nc3cccc(Br)n3)c2cc1OC [Compound 276g]
Data returned: < 0.1 µM

Data request: Try the compound Cc1cc(C(F)(F)F)cc2c3c(N)ncnc3n(CC(=O)N3[C@@H]4C[C@@H]4C[C@H]3C(=O)Nc3cncc(Cl)n3)c12 [Compound 326c]
Data returned: < 0.1 µM

* * *

biological target: Factor D (Homo sapiens)
Metric: IC50

Molecule: Cc1ncc(-c2cc(C)c3c(c2)c2c(N)ncnc2n3CC(=O)N2C[C@](C)(F)C[C@H]2C(=O)Nc2cccc(Cl)n2)cn1 [Compound 343a]
IC50: < 0.1 µM

Molecule: Cc1cc(C(F)(F)F)nc2c3c(N)ncnc3n(CC(=O)N3[C@H](C(=O)Nc4cccc(Br)n4)C[C@@]4(C)C[C@@H]34)c12 [Compound 363a]
IC50: < 0.1 µM

Molecule: NCCNc1ncnc2c1ncn2CC(=O)N1C[C@H](F)C[C@H]1C(=O)NCc1cccc(Cl)c1F [Compound 123g]
IC50: > 1 µM

Molecule: COC(=O)c1cc(OC)c2c(c1)c1c(N)ncnc1n2CC(=O)N1[C@H](C(=O)Nc2cccc(Br)n2)C[C@@]2(C)C[C@@H]12 [Compound 241a]
IC50: < 0.1 µM

Molecule: Nc1ncnn2c(CC(=O)N3C[C@H](F)C[C@H]3C(=O)NCc3cccc(Cl)c3F)ccc12 [Compound 65a]
IC50: < 0.1 µM

Data request: Param item = Nc1ncnc2c1c1nc(-c3ccncc3)ccc1n2CC(=O)N1[C@@H]2C[C@@H]2C[C@H]1C(=O)Nc1cccc(Br)n1 [Compound 307c] ; retrieve measured IC50.
Data returned: < 0.1 µM

Data request: Try the molecule C[C@@]12C[C@@H](C(=O)Nc3cccc(Br)n3)N(C(=O)Cn3c4ccc(-c5ccco5)cc4c4c(N)ncnc43)[C@@H]1C2 [Compound 336c]
Data returned: < 0.1 µM

Data request: Try the molecule Nc1ncnc2c1c1cc(C(F)(F)F)cc(F)c1n2CC(=O)N1[C@@H]2C[C@@H]2C[C@H]1C(=O)Nc1cccc(Br)n1 [Compound 369g]
Data returned: < 0.1 µM

Data request: Try the molecule N#C[C@H]1C[C@@H](C(=O)Nc2cccc(Br)n2)N(C(=O)Cn2c3ccc(C(F)(F)F)cc3c3c(N)ncnc32)C1 [Compound 177d]
Data returned: 0.1 to 1 µM

Data request: Try the molecule Nc1ncnc2c1ccn2CC(=O)N1[C@@H]2C[C@@H]2C[C@H]1C(=O)Nc1cccc(Br)n1 [Compound 80a]
Data returned: < 0.1 µM

* * *

target: Factor D (Homo sapiens); assay: Factor D esterolytic assay (Z-Lys-SBzl thioester substrate, DTNB, 405 nm); type: biochemical; settings: substrate Z-Lys-SBzl 1.29 mM, 100 mM HEPES, 500 mM NaCl, pH 7.5, 10% DMSO, tested a minimum of three times
pIC50: −log10 of the molar value.
The entries below are paired with their reported pIC50.

Compound: C[C@@]12C[C@@H](C(=O)Nc3cccc(Br)n3)N(C(=O)Cn3c4ccc(-c5cccnc5)nc4c4c(N)ncnc43)[C@@H]1C2 [Compound 372a]
Target System: Factor D (Homo sapiens)
pIC50: 6.00 to 7.00

Compound: Cc1ccc(Cl)nc1NC(=O)[C@@H]1C[C@H]2C[C@H]2N1C(=O)Cn1c2ncnc(N)c2c2cc(C(F)(F)F)cc(C)c21 [Compound 318c]
Target System: Factor D (Homo sapiens)
pIC50: > 7.00

Compound: Nc1ncnc2c1ncn2CC(=O)N1C[C@H](F)C[C@H]1C(=O)Nc1cccc(Br)n1 [Compound 93a]
Target System: Factor D (Homo sapiens)
pIC50: 6.00 to 7.00

Here is another compound to look at.
Data request: Record Nc1nccc2c1ccn2CC(=O)N1[C@@H]2C[C@@H]2C[C@H]1C(=O)NCc1cccc(Cl)c1F [Compound 88f] : what is its pIC50 with Factor D (Homo sapiens)?
Data returned: < 6.00
